system: N-type calcium channels (N-channels); type: binding, rats or mice; details: omega-conotoxin binding, brain membrane fragments; read-out: N-channel IC50
Catalogue of pIC50 values
Scale for pIC50: -log10 of concentration given in mol/L; no unit attached.

Below, each entry is followed by its recorded pIC50 result.
[H]/N=C(/N)N[C@H]1[C@H](O)[C@@H](O)[C@H](O[C@@H]2O[C@@H](C)[C@](O)(C=O)[C@H]2O[C@@H]2O[C@@H](CO)[C@H](O)[C@@H](O)[C@@H]2NC)[C@@H](N/C(N)=N\[H])[C@@H]1O
4.60
NC[C@@H]1O[C@H](O[C@H]2[C@@H](O)[C@H](O[C@@H]3[C@@H](O)[C@H](N)C[C@H](N)[C@H]3O[C@H]3O[C@H](CO)[C@@H](O)[C@H](O)[C@H]3N)O[C@@H]2CO)[C@H](N)[C@@H](O)[C@@H]1O
4.40
NC[C@@H]1CC[C@@H](N)[C@@H](O[C@H]2[C@H](O)[C@@H](O[C@H]3O[C@H](CO)[C@@H](O)[C@H](N)[C@H]3O)[C@H](N)C[C@@H]2N)O1
4.22
NC[C@H]1O[C@H](O[C@H]2[C@H](O)[C@@H](O)[C@H](N)C[C@@H]2N)[C@H](N)[C@@H](O)[C@@H]1O
4.60

Note to self: pIC50 recorded for NCC[C@H](O)C(=O)N[C@@H]1C[C@H](N)[C@@H](O[C@H]2O[C@H](CN)[C@@H](O)[C@H](O)[C@H]2O)[C@H](O)[C@H]1O[C@H]1O[C@H](CO)[C@@H](O)[C@H](N)[C@H]1O was 4.35
